MEASUREMENT_NOTES: qHTS assay for measurement of the activity of small molecule inhibitors on Zika virus induced Caspase-3 activity in human iPSC derived neural progenitor cells (hNPCs) (AID 1224857); note: nearly all actives have a fitted effect of over 65% in size; note: potency is the fitted concentration of half-maximal effect
CONDITION_INFO: hNPCs ZIKV-induced caspase-3/7, Caspase-Glo luminescence, 6 h; series mostly up to 45.7 µM
Records with an inconclusive call do not appear. Active and inactive are the calls of the source. Calls come from the whole dose curve; as a rule, active = well fitted inhibition curve with a large enough effect; inconclusive = small, poorly fitted or top-dose-only effect; inactive = no such curve, though single readings can be large or run the other way.

[
  {
    "COMPOUND": "COc1cc2ncnc(Nc3ccc(F)c(Cl)c3)c2cc1NC(=O)C=CCN1CCCCC1",
    "Potency": "inactive"
  },
  {
    "COMPOUND": "CCCCOc1c(C(=O)c2c(F)cc(C)cc2F)cnc2n[nH]cc12",
    "Potency": "inactive"
  },
  {
    "COMPOUND": "COc1cc(-c2nn(C3CCC(N4CCN(C(C)=O)CC4)CC3)c3ncnc(N)c23)ccc1NC(=O)c1cc2ccccc2n1C (stereo not given)",
    "Potency": "inactive"
  },
  {
    "COMPOUND": "OCc1ccc(-c2ccc(-c3ccc(CO)s3)o2)s1",
    "Potency": "26.4 µM (active)"
  },
  {
    "COMPOUND": "Nc1nc(Nc2ccc(S(N)(=O)=O)cc2)nn1C(=O)c1c(F)cccc1F",
    "Potency": "inactive"
  }
]

====

TESTED_SYSTEM: Luciferin 4-monooxygenase (Photinus pyralis)
MEASUREMENT_NOTES: Primary firefly luciferase (FLuc) qHTS assay for identification of artifact compounds. (AID 1845220); note: nearly all actives have a fitted effect of over 60% in size
CONDITION_INFO: purified firefly luciferase, luminescence, 5 min; series mostly up to 54.1 µM
The source made the active and inactive calls. Calls follow the shape of the dose curve; as a rule, active = well fitted inhibition curve with a large enough effect; inconclusive = small, poorly fitted or top-dose-only effect; inactive = flat fitted curve, though single readings scatter.
Outcome codes: YES (active), NO (inactive)

[
  {
    "MOLECULE": "CNC(=O)c1ccccc1Nc1nc(Nc2ccc(N3CCOCC3)cc2OC)ncc1Cl",
    "GROUP": "NO"
  },
  {
    "MOLECULE": "Cc1cc(Nc2cc(N3CCN(C)CC3)nc(Sc3ccc(NC(=O)C4CC4)cc3)n2)n[nH]1",
    "GROUP": "NO"
  },
  {
    "MOLECULE": "O=C(Nc1ncc(-c2cc(C(F)F)nn2-c2c(Cl)cccc2Cl)s1)C1CC1",
    "GROUP": "NO"
  },
  {
    "MOLECULE": "Cc1cc(C(=O)N2CCN(c3cccc(Cl)c3)CC2)n(-c2ccccc2)n1",
    "GROUP": "NO"
  },
  {
    "MOLECULE": "NC(=O)c1cccc2cn(-c3ccc([C@@H]4CCCNC4)cc3)nc12",
    "GROUP": "NO"
  },
  {
    "MOLECULE": "c1ccc2c(CCNc3ccc(Nc4ccncc4)cc3)c[nH]c2c1",
    "GROUP": "NO"
  },
  {
    "MOLECULE": "Cc1ccc(CN2CCNCC2)cc1NC(=O)CNc1ccc(F)c(F)c1",
    "GROUP": "NO"
  },
  {
    "MOLECULE": "O=C(O)CCCc1c[nH]c2ccccc12",
    "GROUP": "NO"
  },
  {
    "MOLECULE": "Cc1ccc(NC(=O)C2(c3ccc4c(c3)OC(F)(F)O4)CC2)nc1-c1cccc(C(=O)O)c1",
    "GROUP": "NO"
  },
  {
    "MOLECULE": "CCNC(=O)Nc1ccc2ncc(Nc3ccc(C)cc3)nc2n1",
    "GROUP": "NO"
  },
  {
    "MOLECULE": "C=CC(=O)N1CCC[C@@H](n2nc(-c3ccc(Oc4ccccc4)cc3)c3c(N)ncnc32)C1",
    "GROUP": "NO"
  },
  {
    "MOLECULE": "Cc1ccc2nc(NC(=O)CSc3nc4c(c(=O)n3-c3ccccc3)SCC4)sc2c1",
    "GROUP": "NO"
  },
  {
    "MOLECULE": "O=C(Nc1cc(C(F)(F)F)cc(C(F)(F)F)c1)c1cc(Cl)ccc1O",
    "GROUP": "NO"
  },
  {
    "MOLECULE": "Cc1cc(Nc2cc(CN3CCOCC3)c3nc(C)c(Cc4ccc(Cl)cc4F)n3n2)n[nH]1",
    "GROUP": "NO"
  },
  {
    "MOLECULE": "CCN(CC)CCNC(=O)c1ccc2nc(-c3ccccc3)c(-c3ccc(CN4CCC(n5c(=O)[nH]c6ccccc65)CC4)cc3)nc2c1",
    "GROUP": "NO"
  },
  {
    "MOLECULE": "O=C(c1cncc(Br)c1)N1CCC(N2CCCC2)CC1",
    "GROUP": "NO"
  },
  {
    "MOLECULE": "Cc1cnc(-c2cnc(NCCNc3ccc(C#N)cn3)nc2-c2ccc(Cl)cc2Cl)[nH]1",
    "GROUP": "NO"
  },
  {
    "MOLECULE": "Cc1nc(Nc2n[nH]c3c2CN(C(=O)N[C@H](CN(C)C)c2ccccc2)C3(C)C)c2sccc2n1",
    "GROUP": "NO"
  },
  {
    "MOLECULE": "CCOc1ccccc1OCCNC(C)Cc1ccc(OC)c(S(N)(=O)=O)c1 (centres undefined)",
    "GROUP": "NO"
  },
  {
    "MOLECULE": "Cc1cc(N2CCOCC2)cc2[nH]c(-c3c(NC[C@@H](O)c4cccc(Cl)c4)cc[nH]c3=O)nc12",
    "GROUP": "NO"
  },
  {
    "MOLECULE": "Cc1cc(CN2CCN(c3c(Br)cnc4nc(-c5ccc(N6CCN(C)CC6)cc5)[nH]c34)CC2)no1",
    "GROUP": "NO"
  },
  {
    "MOLECULE": "O=C(O)Cn1nnc(-c2cc(N3CCC(Oc4cc(F)ccc4Br)CC3)no2)n1",
    "GROUP": "NO"
  },
  {
    "MOLECULE": "CC(C)(O)c1cc2nc(-c3cnc(N)nc3)nc(N3CCOCC3)c2s1",
    "GROUP": "NO"
  },
  {
    "MOLECULE": "CNC(=O)c1cc(Oc2ccc(NC(=O)Nc3cc(C(C)(C)C)nn3-c3ccc4ncccc4c3)c(F)c2)ccn1",
    "GROUP": "NO"
  },
  {
    "MOLECULE": "Nc1nc(NCCNc2ncc(-n3ccnc3)c(-c3ccc(Cl)cc3Cl)n2)ccc1[N+](=O)[O-]",
    "GROUP": "NO"
  },
  {
    "MOLECULE": "Fc1cc(-c2cccc3ncc(-c4cnn(C5CCNCC5)c4)nc23)cc(F)c1CN1CCOCC1",
    "GROUP": "NO"
  },
  {
    "MOLECULE": "Cc1[nH]nc2ccc(-c3cncc(OC[C@@H](N)Cc4ccccc4)c3)cc12",
    "GROUP": "NO"
  },
  {
    "MOLECULE": "COc1cccc(-c2ccc(NC(=O)C3=C(C(=O)O)CCC3)c(F)c2)c1",
    "GROUP": "YES"
  },
  {
    "MOLECULE": "Cc1c(CN2CCN(S(C)(=O)=O)CC2)sc2c(N3CCOCC3)nc(-c3cnc(N)nc3)nc12",
    "GROUP": "NO"
  },
  {
    "MOLECULE": "NCC(=O)Nc1ccc(-n2nc(C(F)(F)F)cc2-c2ccc3c(ccc4ccccc43)c2)cc1",
    "GROUP": "NO"
  },
  {
    "MOLECULE": "OCc1ccc(-c2ccc(-c3ccc(CO)s3)o2)s1",
    "GROUP": "YES"
  },
  {
    "MOLECULE": "Nc1ncnc2c1c(-c1cccc(OCc3ccccc3)c1)cn2C1CC(CN2CCCC2)C1 (centres undefined)",
    "GROUP": "NO"
  },
  {
    "MOLECULE": "Cn1c(=O)n(-c2ccc(C(C)(C)C#N)cc2)c2c3cc(-c4cnc5ccccc5c4)ccc3ncc21",
    "GROUP": "NO"
  },
  {
    "MOLECULE": "C=CC(=O)Nc1cccc(Oc2nc(Nc3ccc(N4CCN(C)CC4)cc3OC)ncc2Cl)c1",
    "GROUP": "NO"
  },
  {
    "MOLECULE": "COc1ccc2c(c1)CC[C@@H](CN(C)CC(=O)O)[C@H]2c1ccccc1",
    "GROUP": "NO"
  },
  {
    "MOLECULE": "COc1cc2c(NC3CCN(C(C)C)CC3)nc(C3CCCCC3)nc2cc1OCCCN1CCCC1",
    "GROUP": "NO"
  },
  {
    "MOLECULE": "CC(C)c1nn(-c2c(Cl)cccc2Cl)c2nc(Cc3ccc(OCCO)cc3)[nH]c(=O)c12",
    "GROUP": "NO"
  },
  {
    "MOLECULE": "CNc1nccc(-c2cccnc2Oc2cc(C(=O)Nc3cccc(C(F)(F)F)c3)ccc2C)n1",
    "GROUP": "NO"
  },
  {
    "MOLECULE": "Clc1cccc(-n2nnnc2NCc2ccccc2Oc2ccccn2)c1Cl",
    "GROUP": "NO"
  }
]
